system: CLK4; settings: concentration: 1 μM, replicates: in singlicate; n = 1;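 note: KINOMEscan kinase panel screen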
Property: %Inh; scope: individual compounds
# output: bare number, implied unit %

In the examples that follow, each entry is paired with its recorded %Inh.
>  <smiles_data>
CCNC(=O)/C=C/c1n[nH]c2cc(Sc3ccccc3C(=O)NC)ccc12

>  <measurement>
3

$$$$
>  <smiles_data>
O=C(Nc1c(F)cccc1F)c1cc(C(=O)c2ccccc2F)c[nH]1

>  <measurement>
0

$$$$
>  <smiles_data>
COC(=O)Nc1nc2cc(Oc3ccc(NC(=O)Nc4cccc(SC)c4)cc3)ccc2[nH]1.Cl

>  <measurement>
24

$$$$

Please look at the following compound next.
Entry `CC(C)c1nc(-c2cccc(NS(=O)(=O)c3c(F)cccc3F)c2)c(-c2ccnc(Nc3ccc(N4CCOCC4)nc3)n2)s1.Cl` , CLK4 data, %Inh value: 0

* * *

test system: TBK1; conditions: concentration: 1 μM, replicates: in singlicate; n = 1
parameter: %Inh (%)
# output: bare number, implied unit %

In the examples that follow, each entry is paired with its recorded %Inh.
>  <compound>
COC(=O)Nc1nc2ccc(Oc3ccc(CC(=O)Nc4cc(C(F)(F)F)ccc4F)cc3)cc2[nH]1 [GW680903]

>  <target_under_test>
TBK1

>  <%Inh [%]>
4

$$$$
>  <compound>
O=C(Nc1n[nH]c2cc(-c3cccs3)ccc12)C1CC1 [SB-731284]

>  <target_under_test>
TBK1

>  <%Inh [%]>
47

$$$$
>  <compound>
Cc1cc(-c2c(-c3ccc(F)cc3)ncn2CCCN2CCOCC2)nc(N)n1 [SB-222517]

>  <target_under_test>
TBK1

>  <%Inh [%]>
42

$$$$
>  <compound>
CSc1ccc(NC2=C(c3ccc(Cl)cc3)C(=O)NC2=O)cc1 [SB-317658]

>  <target_under_test>
TBK1

>  <%Inh [%]>
0

$$$$
>  <compound>
CN(c1ccc(NC(=O)Nc2cccc(Cl)c2)cc1)c1ccnc(N)n1.Cl [GW830707]

>  <target_under_test>
TBK1

>  <%Inh [%]>
0

$$$$
>  <compound>
Cc1ccc(O)cc1Nc1ccnc2cc(-c3ccc(CN4CCCCC4)o3)ccc12 [GW557777]

>  <target_under_test>
TBK1

>  <%Inh [%]>
0

$$$$

Entry COc1cccc(C2=C(Nc3cccc(O)c3)C(=O)NC2=O)c1 [SB-390771] , TBK1 data, %Inh value: 30

Entry COC(=O)Nc1nc2cc(Oc3ccc(NC(=O)Nc4cccc(SC)c4)cc3)ccc2[nH]1.Cl [GW697999] , TBK1 data, %Inh value: 0

Entry Cc1ccc(NC(=O)c2ccc(Cl)c(Cl)c2)cc1-c1ccc(C(=O)Nc2ccncc2)cc1 [GSK1398460] , TBK1 data, %Inh value: 23

Entry COc1ccc(NC(=O)c2ccoc2)cc1-c1ccc(C(=O)NCC2CC2)cc1 [GW810437] , TBK1 data, %Inh value: 8

Entry Cc1ccc(NC(=O)c2cccc(N3CCCCC3)c2)cc1-c1ccc(C(=O)NCC2CC2)cc1 [GSK1917008] , TBK1 data, %Inh value: 0

* * *

system: CSF1R-autoinhibited; conditions: concentration: 1 μM, replicates: in singlicate; n = 1
parameter: %Inh (%)
# output: bare number, implied unit %

Entry `N#Cc1cnc2cc(-c3cnc(CNCCN4CCOCC4)s3)ccc2c1Nc1ccc(Oc2ccccc2)cc1` , CSF1R-autoinhibited data, %Inh value: 17

Entry `O=C(Nc1n[nH]c2nc(-c3ccccc3)ccc12)C1CC1` , CSF1R-autoinhibited data, %Inh value: 36

Entry `Cc1ccccc1CC(=O)N1CCc2cc(-c3cn(C)c4ncnc(N)c34)ccc21` , CSF1R-autoinhibited data, %Inh value: 0

Entry `O=C(Nc1n[nH]c2nc(-c3cccc(O)c3)ccc12)C1CC1` , CSF1R-autoinhibited data, %Inh value: 0

Entry `Nc1ncc(-c2cn[nH]c2)c2scc(-c3ccc4c(c3)CCN4C(=O)Cc3ccccc3)c12` , CSF1R-autoinhibited data, %Inh value: 51
